# Anti-acetylcholinesterase Activity (Specific Activity) annotations
- Tested On: UniProt:P22303
- Sequence (P22303 32-614): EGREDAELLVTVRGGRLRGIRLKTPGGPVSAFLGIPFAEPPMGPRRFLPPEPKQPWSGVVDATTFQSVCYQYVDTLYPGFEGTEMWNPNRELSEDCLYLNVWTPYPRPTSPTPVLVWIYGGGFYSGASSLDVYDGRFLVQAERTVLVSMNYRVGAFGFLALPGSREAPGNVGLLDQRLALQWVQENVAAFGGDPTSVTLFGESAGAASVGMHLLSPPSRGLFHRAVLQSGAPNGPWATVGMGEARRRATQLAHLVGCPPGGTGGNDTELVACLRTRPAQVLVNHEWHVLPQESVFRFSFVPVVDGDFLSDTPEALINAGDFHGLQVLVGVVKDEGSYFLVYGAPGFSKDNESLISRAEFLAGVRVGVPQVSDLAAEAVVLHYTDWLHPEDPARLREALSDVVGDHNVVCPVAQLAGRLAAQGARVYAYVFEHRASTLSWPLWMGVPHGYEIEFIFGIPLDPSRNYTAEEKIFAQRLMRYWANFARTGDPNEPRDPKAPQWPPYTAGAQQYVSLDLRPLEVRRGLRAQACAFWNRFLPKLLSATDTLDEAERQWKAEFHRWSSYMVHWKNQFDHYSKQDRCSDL
- Method Summary: Inhibitive effect on acetylcholinesterase activity (anti-acetylcholinesterase activity)
- Assay type: biochemical

Known Anti-acetylcholinesterase Activity (Specific Activity) results, listed for orientation:
Molecule	Tested On	Observed Result
Nc1c2c(nc3ccccc13)CCC(CCCCC1CCN(Cc3ccccc3)CC1)C2=O (stereo not drawn)	UniProt:P22303	47.62
COc1c2c(nc3ccccc13)CN(CCC1CCN(Cc3ccccc3)CC1)C2=O	UniProt:P22303	9.52
N#Cc1ccccc1NC1=CC(=O)N(CCCC2CCN(Cc3ccccc3)CC2)C1	UniProt:P22303	13.5

Reported Anti-acetylcholinesterase Activity (Specific Activity) (UniProt:P22303) for entry Cl.Cl.Nc1c2c(nc3ccccc13)CCC(CCC1CCN(Cc3ccccc3)CC1)C2=O (stereo not drawn) is 5.00

For the molecule N#Cc1ccccc1NC1=CC(=O)N(CCC2CCN(Cc3ccccc3)CC2)C1 , the measured Anti-acetylcholinesterase Activity (Specific Activity) on UniProt:P22303 was 7.7

Entry Nc1c2c(nc3ccccc13)CN(CCC1CCN(Cc3ccccc3)CC1)C2=O , tested on UniProt:P22303, has a reported Anti-acetylcholinesterase Activity (Specific Activity) of 1.94
